Value source: ChEMBL document CHEMBL3102722

system: Staphylococcus aureus; assay: Antibacterial activity against Staphylococcus aureus 8325-4 assessed as growth inhibition after 20 to 24 hrs; format: functional
The reader will find reported MIC values listed item by item below.

Worked examples, 5 compounds total:
{"columns": ["Structure as smiles", "MIC"],
 "data": [
  ["CN[C@H](CC(C)C)C(=O)N[C@H]1C(=O)N[C@@H](CC(N)=O)C(=O)N[C@H]2C(=O)N[C@H]3C(=O)N[C@H](C(=O)N[C@H](C(=O)O)c4cc(O)cc(O)c4-c4cc3ccc4O)[C@H](O)c3ccc(c(Cl)c3)Oc3cc2cc(c3O[C@@H]2O[C@H](CO)[C@@H](O)[C@H](O)[C@H]2O[C@H]2C[C@](C)(N)[C@H](O)[C@H](C)O2)Oc2ccc(cc2Cl)[C@H]1O", "3.13 µg/mL"],
  ["Cc1ccc(C(=O)N(C)/N=C/c2c(O)ccc3ccccc23)cc1", "> 50 µg/mL"],
  ["Cc1cc(C(=O)N/N=C/c2ccc([N+](=O)[O-])o2)[nH]n1", "1.56 µg/mL"],
  ["COc1ccc2ccccc2c1/C=N/N(C)C(=O)c1ccc(C)cc1", "> 50 µg/mL"],
  ["Cc1cc(C(=O)N/N=C/c2c(O)ccc3ccccc23)c2cc(Br)ccc2n1", "> 50 µg/mL"]
]}

q: Suppose we examine the compound Cc1ccc(C(=O)N/N=C/c2ccc(O)c3ccccc23)cc1 ; what MIC value has been reported?
a: > 50 µg/mL

q: Same question for COc1cccc(/C=N/NC(=O)c2cc(C)nc3ccc(Br)cc23)c1O please.
a: > 50 µg/mL

====

tested on: Bacteroides fragilis; experiment: Antibacterial activity against Bacteroides fragilis ATCC 25285 assessed as growth inhibition after 20 to 24 hrs; format: functional; details: NCTC 9343
Each entry below carries its reported MIC.

{"columns": ["Structure as smiles", "Result"],
 "data": [
  ["Cc1ccc(C(=O)N(C)/N=C/c2c(O)ccc3ccccc23)cc1", "> 50 µg/mL"],
  ["COc1ccc2ccccc2c1/C=N/NC(=O)c1ccc(C)cc1", "> 50 µg/mL"],
  ["COc1cccc(/C=N/NC(=O)c2cc(C)nc3ccc(Br)cc23)c1", "> 50 µg/mL"],
  ["Cc1ncc([N+](=O)[O-])n1CCO", "≤ 0.78 µg/mL"]
]}

q: For the compound shown here, COc1ccc2ccccc2c1/C=N/N(C)C(=O)c1ccc(C)cc1 , give the reported MIC.
a: > 50 µg/mL

q: Query COc1cccc(/C=N/NC(=O)c2cc(C)nc3ccc(Br)cc23)c1O next
a: > 50 µg/mL

====

system: Clostridium perfringens; experiment: Antibacterial activity against Clostridium perfringens ATCC 13124 assessed as growth inhibition after 20 to 24 hrs; format: functional
Overview of recorded MIC for various compounds

As a guide, the following entries are already answered.
{"columns": ["Compound", "Result"],
 "data": [
  ["COc1cccc(/C=N/NC(=O)c2ccc(C)cc2)c1O", "6.25 µg/mL"],
  ["Cc1cc(C(=O)N/N=C/c2ccc([N+](=O)[O-])o2)[nH]n1", "≤ 12.5 µg/mL"],
  ["Cc1ccc(C(=O)N/N=C/c2ccc(O)c3ccccc23)cc1", "> 50 µg/mL"],
  ["O=C(N/N=C/c1c(O)ccc2ccccc12)c1ccc(Cl)cc1", "≤ 0.78 µg/mL"],
  ["COc1cccc(/C=N/NC(=O)c2cc(C)n[nH]2)c1O", "> 50 µg/mL"],
  ["COc1ccc2ccccc2c1/C=N/NC(=O)c1ccc(C)cc1", "> 50 µg/mL"],
  ["Cc1cc(C(=O)N/N=C/c2c(O)ccc3ccccc23)c2cc(Br)ccc2n1", "25 µg/mL"],
  ["Cc1ncc([N+](=O)[O-])n1CCO [METRONIDAZOLE]", "3.13 µg/mL"],
  ["COc1cccc(/C=N/NC(=O)c2cc(C)nc3ccc(Br)cc23)c1", "> 50 µg/mL"],
  ["COc1ccc2ccccc2c1/C=N/N(C)C(=O)c1ccc(C)cc1", "> 50 µg/mL"]
]}

Next, consider the following compound.
q: What measured MIC goes with Cc1cc(C(=O)N/N=C/c2cccc3ccccc23)[nH]n1 ?
a: > 50 µg/mL

====

Catalogue of molecules with associated MCC at 24 h
experiment: Cytotoxicity against human HepG2 cells assessed as concentration required to decrease cell viability incubated for 24 hrs followed by compound washout measured after 18 hrs by resazurin dye-based assay; settings: read-out: Activity

{"columns": ["Molecule", "MCC at 24 h"],
 "data": [
  ["Cc1ccc(C(=O)N/N=C/c2c(O)ccc3ccccc23)cc1", "> 100 µg/mL"]
]}

q: Query (molecule): Cc1ncc([N+](=O)[O-])n1CCO [METRONIDAZOLE] ; field requested: MCC at 24 h
a: > 200 µg/mL

q: One more molecule: Clc1ccc(COC(Cn2ccnc2)c2ccc(Cl)cc2Cl)c(Cl)c1 (stereo unspecified) [MICONAZOLE]
a: 50 µg/mL

q: For N#CC(C#N)=NNc1cccc(Cl)c1 [CARBONYL CYANIDE M-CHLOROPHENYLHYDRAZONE] then?
a: 50 µg/mL

q: Can you check CN[C@H](CC(C)C)C(=O)N[C@H]1C(=O)N[C@@H](CC(N)=O)C(=O)N[C@H]2C(=O)N[C@H]3C(=O)N[C@H](C(=O)N[C@H](C(=O)O)c4cc(O)cc(O)c4-c4cc3ccc4O)[C@H](O)c3ccc(c(Cl)c3)Oc3cc2cc(c3O[C@@H]2O[C@H](CO)[C@@H](O)[C@H](O)[C@H]2O[C@H]2C[C@](C)(N)[C@H](O)[C@H](C)O2)Oc2ccc(cc2Cl)[C@H]1O [VANCOMYCIN] next?
a: > 200 µg/mL

q: Same read-out for Cc1cc(C(=O)N/N=C/c2c(O)ccc3ccccc23)[nH]n1 ?
a: > 100 µg/mL

====

system: Staphylococcus aureus; assay: Antibacterial activity against Staphylococcus aureus 8325-4 assessed as growth inhibition after 20 to 24 hrs; type: functional
Value kind: MIC

// worked examples, MIC included
{"columns": ["Compound", "MIC"],
 "data": [
  ["COc1cccc(/C=N/NC(=O)c2ccc(C)cc2)c1O", "> 50 µg/mL"],
  ["N#CC(C#N)=NNc1cccc(Cl)c1 [CARBONYL CYANIDE M-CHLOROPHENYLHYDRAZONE]", "> 50 µg/mL"],
  ["O=[N+]([O-])c1ccc(O)c([N+](=O)[O-])c1", "25 µg/mL"],
  ["Cc1cc(C(=O)N/N=C/c2cccc3ccccc23)[nH]n1", "> 50 µg/mL"],
  ["O=C(N/N=C/c1c(O)ccc2ccccc12)c1ccc(-c2ccccc2)cc1", "> 50 µg/mL"],
  ["Cc1ncc([N+](=O)[O-])n1CCO", "> 50 µg/mL"],
  ["Cc1cc(C(=O)N/N=C/c2c(O)ccc3ccccc23)[nH]n1", "> 50 µg/mL"],
  ["O=C(N/N=C/c1c(O)ccc2ccccc12)c1ccc(Cl)cc1", "> 50 µg/mL"]
]}

Please find the next compound below.
q: Requested field: MIC. Item: Cc1ccc(C(=O)N/N=C/c2cccc3ccccc23)cc1
a: > 50 µg/mL

====

test system: FaDu; test: Cytotoxicity against human FADU cells assessed as concentration required to decrease cell viability incubated for 24 hrs followed by compound washout measured after 18 hrs by resazurin dye-based assay
Value kind: Activity

// worked examples, Activity included
{"columns": ["Compound", "Result"],
 "data": [
  ["Clc1ccc(COC(Cn2ccnc2)c2ccc(Cl)cc2Cl)c(Cl)c1 (stereo unspecified)", "50 µg/mL"],
  ["Cc1ccc(C(=O)N/N=C/c2c(O)ccc3ccccc23)cc1", "> 100 µg/mL"],
  ["N#CC(C#N)=NNc1cccc(Cl)c1 [CARBONYL CYANIDE M-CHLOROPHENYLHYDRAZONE]", "50 µg/mL"],
  ["CN[C@H](CC(C)C)C(=O)N[C@H]1C(=O)N[C@@H](CC(N)=O)C(=O)N[C@H]2C(=O)N[C@H]3C(=O)N[C@H](C(=O)N[C@H](C(=O)O)c4cc(O)cc(O)c4-c4cc3ccc4O)[C@H](O)c3ccc(c(Cl)c3)Oc3cc2cc(c3O[C@@H]2O[C@H](CO)[C@@H](O)[C@H](O)[C@H]2O[C@H]2C[C@](C)(N)[C@H](O)[C@H](C)O2)Oc2ccc(cc2Cl)[C@H]1O", "> 200 µg/mL"],
  ["Cc1ncc([N+](=O)[O-])n1CCO", "> 200 µg/mL"]
]}

API: the following record is the query input.
q: Field request: Activity | item: Cc1cc(C(=O)N/N=C/c2c(O)ccc3ccccc23)[nH]n1
a: > 100 µg/mL

====

tested on: Bacteroides fragilis; test: Antibacterial activity against Bacteroides fragilis ATCC 25285 assessed as growth inhibition after 20 to 24 hrs; assay type: functional; conditions: NCTC 9343
Value kind: MIC

In the examples that follow, each entry is paired with its recorded MIC.
{"columns": ["Structure as smiles", "MIC"],
 "data": [
  ["Oc1c(Cl)c(Cl)c(Cl)c(Cl)c1Cl", "6.25 µg/mL"],
  ["Cc1cc(C(=O)N/N=C/c2c(O)ccc3ccccc23)[nH]n1", "> 50 µg/mL"]
]}

q: Using the record for COc1cccc(/C=N/NC(=O)c2ccc(C)cc2)c1O , report its MIC.
a: > 50 µg/mL

q: What about Cc1cc(C(=O)N/N=C/c2ccc([N+](=O)[O-])o2)[nH]n1 ?
a: ≤ 3.13 µg/mL

q: What about O=C(N/N=C/c1c(O)ccc2ccccc12)c1ccc(-c2ccccc2)cc1 ?
a: > 50 µg/mL

q: Also Cc1cc(C(=O)N/N=C/c2cccc3ccccc23)[nH]n1 , if possible.
a: > 50 µg/mL

q: Moving on to COc1cccc(/C=N/NC(=O)c2cc(C)n[nH]2)c1O
a: > 50 µg/mL

q: Could you do the same for CCc1c(Cl)c(O)c(Cl)c(O)c1C(=O)O[C@H]1[C@H](O)[C@H](OC)[C@H](OC/C2=C\C=C\C[C@H](O)/C(C)=C/[C@H](CC)[C@@H](O[C@@H]3OC(C)(C)[C@@H](OC(=O)C(C)C)[C@H](O)[C@@H]3O)/C(C)=C/C(C)=C/C[C@@H]([C@@H](C)O)OC2=O)O[C@@H]1C , please?
a: > 50 µg/mL

q: Same question for Cc1ccc(C(=O)N/N=C/c2ccc(O)c3ccccc23)cc1 please.
a: > 50 µg/mL
